# Target Desc: Luciferin 4-monooxygenase (Photinus pyralis)
# Protocol Text: Primary firefly luciferase (FLuc) qHTS assay for identification of artifact compounds. (AID 1845220); also: nearly all actives have a fitted effect of over 60% in size
# Protocol Conditions: purified firefly luciferase, luminescence, 5 min; series mostly up to 54.1 µM
Calls of active or inactive are those of the source. Calls follow the shape of the dose curve; as a rule, active = well fitted inhibition curve with a large enough effect; inconclusive = small, poorly fitted or top-dose-only effect; inactive = flat fitted curve, though single readings scatter.
Property: outcome

COC1CC(O[C@H]2CC[C@]3(C)C4CC[C@]5(C)C(C6=CC(=O)OC6)=CCC56OC46CC[C@@H]3C2)OC(C)C1O[C@@H]1O[C@H](CO[C@@H]2O[C@H](CO)[C@@H](O)[C@H](O)[C@H]2O)[C@@H](O)[C@H](O)[C@H]1O (stereo not given in full) : inactive [at 11.6 µM]
C[C@@H]1O[C@@H](O[C@H]2[C@H](OC(=O)[C@]34CCC(C)(C)C[C@H]3C3=CCC5[C@@]6(C)C[C@H](O)[C@H](O[C@@H]7O[C@H](C(=O)O)[C@@H](O)[C@H](O)[C@H]7O)[C@@](C)(CO)C6[C@H](O)C[C@@]5(C)[C@]3(C)C[C@H]4O)O[C@@H](CO)[C@@H]2O)[C@H](O)[C@H](O)[C@H]1O[C@@H]1OC[C@@H](O)[C@H](O[C@H]2OC[C@](O)(CO)[C@H]2O)[C@H]1O (stereo not given in full) : inactive [at 11.6 µM]
CC1(C)CC[C@]23CO[C@@]4(CCC5[C@@]6(C)CC[C@H](O[C@@H]7OC[C@H](O[C@@H]8O[C@H](CO)[C@@H](O)[C@H](O)[C@H]8O[C@@H]8OC[C@@H](O)[C@H](O)[C@H]8O)[C@H](O)[C@H]7O[C@@H]7O[C@H](CO)[C@@H](O)[C@H](O)[C@H]7O)[C@@](C)(CO)C6CC[C@@]5(C)[C@]4(C)C[C@H]2O)[C@@H]3C1 (stereo not given in full) : inactive [at 11.6 µM]
C[C@@H]1O[C@@H](O[C@H]2[C@@H](OC(=O)[C@]34CCC(C)(C)CC3C3=CCC5[C@@]6(C)C[C@H](O)[C@H](O[C@@H]7O[C@H](CO)[C@@H](O)[C@H](O)[C@H]7O[C@@H]7OC[C@@H](O)[C@H](O)[C@H]7O)[C@@](C)(C(=O)O)C6CC[C@@]5(C)[C@]3(C)CC4)OC[C@H](O)[C@@H]2O)[C@H](O)[C@H](O)[C@H]1O[C@@H]1OC[C@@H](O)[C@H](O)[C@H]1O (stereo not given in full) : inactive [at 11.6 µM]
COC1CC(O[C@H]2CC[C@]3(C)C4CC[C@@]5(C)C(=O)[C@]4(CC[C@@H]3C2)CC[C@@H]5C2=CC(=O)OC2)OC(C)C1OC1OC(COC2OC(CO)C(O)C(O)C2O)C(O)C(O)C1O (stereo not given in full) : inactive [at 11.6 µM]
CC(CCC1(O)OC2CC3C4CC=C5C[C@@H](O[C@@H]6O[C@H](CO)[C@@H](O[C@@H]7O[C@@H](C)[C@H](O)[C@@H](O)[C@H]7O)[C@H](O)[C@H]6O[C@@H]6O[C@@H](C)[C@H](O)[C@@H](O)[C@H]6O)CC[C@]5(C)C4CC[C@]3(C)[C@@]2(O)[C@@H]1C)CO[C@@H]1O[C@H](CO)[C@@H](O)[C@H](O)[C@H]1O (stereo not given in full) : inactive [at 11.6 µM]
CC1(C)CC[C@]2(C(=O)O)[C@H](O)C[C@]3(C)C(=CCC4[C@@]5(C)CC[C@H](O[C@@H]6O[C@H](CO[C@@H]7OC[C@H](O)[C@H](O)[C@H]7O[C@@H]7OC[C@H](O)[C@H](O)[C@H]7O)[C@@H](O)[C@H](O)[C@H]6O)C(C)(C)C5CC[C@]43C)[C@@H]2C1 (stereo not given in full) : inactive [at 11.6 µM]
C[C@@H]1O[C@@H](O[C@H]2[C@H](O[C@H]3CC[C@@]4(C)C(CC[C@]5(C)C4C=C[C@]46OC[C@@]7(CCC(C)(C)C[C@H]74)[C@@H](O[C@@H]4O[C@@H](C)[C@H](O)[C@@H](O)[C@H]4O)C[C@]65C)[C@]3(C)CO)O[C@H](CO)[C@@H](O)[C@@H]2O[C@@H]2O[C@H](CO)[C@@H](O)[C@H](O)[C@H]2O)[C@H](O)[C@H](O)[C@H]1O (stereo not given in full) : inactive [at 11.6 µM]
CC1(C)CC[C@]23CO[C@@]4(CCC5[C@@]6(C)CC[C@H](O[C@@H]7OC[C@H](O[C@@H]8O[C@H](CO)[C@@H](O)[C@H](O)[C@H]8O[C@@H]8OC[C@@H](O)[C@H](O)[C@H]8O)[C@H](O)[C@H]7O)[C@@](C)(CO)C6CC[C@@]5(C)[C@]4(C)CC2=O)[C@@H]3C1 (stereo not given in full) : inactive [at 11.6 µM]
